protocolDetails: in vitro
Type: in vitro ADME
conditionSet: human, plasma, Exp. PPB (fb*)
Positions of bridges follow the written chain, without caps; N, C: chain ends. Residues, ends and D or L forms follow the SMILES beside them.
parameterMeasured: fraction unbound at 6 h, 1 μM

{"columns": ["molecule", "readoutNumber"],
 "data": [
  ["CC(C)C[C@@H]1NC(=O)CNC(=O)[C@H](C)NC(=O)[C@@H](N)CSSC[C@@H](C(=O)O)NC(=O)[C@H](C)NC(=O)[C@H](C)NC(=O)[C@H](CC(C)C)NC(=O)[C@H](C(C)C)NC1=O [Pep.9] (H-CAGLVLAAC-OH; disulfide 1-9; N-terminus and C-terminus assumed)", 1]
]}
